The reported measurements were obtained from ChEMBL document CHEMBL1143150.

# procedure.summary: Binding affinity to HLA-DQ2 expressed in EBV-transformed B cells
# Type: cell-based
Square brackets hold non-standard residues; d marks the D form. Peptide text beside a SMILES is read from it. Pro(cis-4-N3) = [N-]=[N+]=N[C@@H]1CN[C@H](C(=O)O)C1
reported.metric: IC50 (µM)
Answers are plain numbers, in µM.

Data point: CC(C)C[C@H](NC(=O)[C@H](CCC(=O)O)NC(=O)[C@@H]1CCCN1C(=O)[C@H](CCC(N)=O)NC(=O)[C@@H]1C[C@H](N=[N+]=[N-])CN1C(=O)[C@H](Cc1ccccc1)NC(=O)[C@@H]1CCCN1C(=O)[C@H](CCC(N)=O)NC(=O)[C@@H](N)CC(C)C)C(=O)N1CCC[C@H]1C(=O)N[C@@H](Cc1ccc(O)cc1)C(=O)N1CCC[C@H]1C(=O)N[C@@H](CCC(N)=O)C(=O)O (H-LQPF[Pro(cis-4-N3)]QPELPYPQ-OH) ; IC50 = 6.9

----------
# procedure.summary: Binding affinity to HLA-DQ2 expressed in EBV-transformed B cells
# Type: cell-based
Square brackets hold non-standard residues; d marks the D form. Peptide text beside a SMILES is read from it. * marks the point of attachment. Pro(cis-4-N3) = [N-]=[N+]=N[C@@H]1CN[C@H](C(=O)O)C1; X2 = NC(=O)CCCC(=O)*
reported.metric: IC50 (µM)
Numbers only, in µM.

IC50 recorded for this molecule, CC(C)C[C@H](NC(=O)CCCC(N)=O)C(=O)N[C@@H](CCC(N)=O)C(=O)N1CCC[C@H]1C(=O)N[C@@H](Cc1ccccc1)C(=O)N1C[C@@H](N=[N+]=[N-])C[C@H]1C(=O)N[C@@H](CCC(N)=O)C(=O)N1CCC[C@H]1C(=O)N[C@@H](CCC(=O)O)C(=O)N[C@@H](CC(C)C)C(=O)N1CCC[C@H]1C(=O)N[C@@H](Cc1ccc(O)cc1)C(=O)N1CCC[C@H]1C(=O)N[C@@H](CCC(N)=O)C(=O)O (X2-LQPF[Pro(cis-4-N3)]QPELPYPQ-OH) , is 7.2
